Measured on: T1, cynomolgus monkey IL-21R expressed on cells (cynomolgus monkey, UniProt G7Q0S8 41-559)
T1 construct: whole, on cells
Assay: cell ELISA, CHO cells
// values below are reported A450 (13 nM Ab)
Write the value in A450 as a bare number.

Some entries whose results are on file:
Binder	A450 (13 nM Ab), A450
AbK (antibody, IgG1, V domains shown, As for AbA: IgG1/lambda, CDR3 graft, residue limits derived; also called VH3/VL3) VH: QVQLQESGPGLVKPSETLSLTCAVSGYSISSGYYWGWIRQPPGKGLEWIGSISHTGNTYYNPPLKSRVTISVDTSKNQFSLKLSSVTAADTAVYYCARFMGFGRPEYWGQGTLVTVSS VL: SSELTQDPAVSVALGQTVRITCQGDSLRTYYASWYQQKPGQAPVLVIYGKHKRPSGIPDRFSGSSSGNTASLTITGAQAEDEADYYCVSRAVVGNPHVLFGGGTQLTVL	1.34
AbJ (antibody, IgG1, V domains shown, As for AbA: IgG1/lambda, CDR3 graft, residue limits derived; also called VH3/VLP) VH: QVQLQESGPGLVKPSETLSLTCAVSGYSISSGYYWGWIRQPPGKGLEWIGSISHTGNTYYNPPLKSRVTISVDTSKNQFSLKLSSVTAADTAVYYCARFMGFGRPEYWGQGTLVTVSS VL: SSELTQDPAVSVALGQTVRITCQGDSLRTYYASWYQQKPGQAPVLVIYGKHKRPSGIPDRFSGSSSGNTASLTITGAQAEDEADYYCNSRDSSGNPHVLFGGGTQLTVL	1.27

What the record says about AbS (antibody, V domains shown, CDR3 graft, residue limits derived as for m29; also called VHP/VL6; VHPTM/VL6) VH: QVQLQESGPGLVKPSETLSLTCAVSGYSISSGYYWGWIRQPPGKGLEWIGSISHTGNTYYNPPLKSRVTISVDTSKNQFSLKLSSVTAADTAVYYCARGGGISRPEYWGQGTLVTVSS VL: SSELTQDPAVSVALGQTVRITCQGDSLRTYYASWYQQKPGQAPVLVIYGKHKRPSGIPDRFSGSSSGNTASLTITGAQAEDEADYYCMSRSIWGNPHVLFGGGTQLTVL : A450 (13 nM Ab) is 1.22

Field A450 (13 nM Ab) (entry AbH (antibody, IgG1, V domains shown, As for AbA: IgG1/lambda, CDR3 graft, residue limits derived; also called VHP/VL19) VH: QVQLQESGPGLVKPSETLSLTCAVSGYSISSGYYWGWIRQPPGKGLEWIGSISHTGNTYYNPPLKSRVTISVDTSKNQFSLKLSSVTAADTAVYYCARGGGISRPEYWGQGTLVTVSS VL: SSELTQDPAVSVALGQTVRITCQGDSLRTYYASWYQQKPGQAPVLVIYGKHKRPSGIPDRFSGSSSGNTASLTITGAQAEDEADYYCVARAVRGNPHVLFGGGTQLTVL ) reads 1.32

Please fill in: A450 (13 nM Ab) reported for AbL (antibody, IgG1, V domains shown, As for AbA: IgG1/lambda, CDR3 graft, residue limits derived; also called VH3/VL13) VH: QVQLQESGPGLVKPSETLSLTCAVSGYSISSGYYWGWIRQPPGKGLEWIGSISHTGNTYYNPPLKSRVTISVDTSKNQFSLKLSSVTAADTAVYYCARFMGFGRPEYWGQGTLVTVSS VL: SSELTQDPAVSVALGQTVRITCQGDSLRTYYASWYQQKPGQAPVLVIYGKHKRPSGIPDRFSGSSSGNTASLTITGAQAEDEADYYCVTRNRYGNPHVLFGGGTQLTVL = 1.51
